B1: tRNA (parent)
chain: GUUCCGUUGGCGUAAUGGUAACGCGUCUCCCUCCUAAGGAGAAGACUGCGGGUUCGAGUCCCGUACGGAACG

variants of: B1; experiment: yeast fitness relative to wild type (ratio to wild type); higher = fitter; tRNA-Arg(CCU), competitive growth, 37 C, YPD
Fewer inactive variants are shown than the library holds.
Assign class by yeast fitness: not lower than 0.6 means fulfilled; lower than 0.6 means not fulfilled.

Worked cases, answers included:
C5G A57C = fulfilled
U2C G17A A69C = not fulfilled
G18C C24A A36U = not fulfilled
G12C A45C C61A = fulfilled

Query block: Does yeast fitness meet or surpass 0.6 for A21C G63C ?
Result block: fulfilled
